assay_details: qHTS Assay for Identifying Gametocytocidal Compounds (AID 743244);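 further: on the % scale 0 is the no-effect control and ±100 the full control effect; actives lower the fluorescent signal which means gametocytes are killed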
condition_info: P. falciparum 3D7 stage III-V gametocytes, alamarBlue, 72 h; stronger effect = lower value
Records with an inconclusive call do not appear.
measurement_label: max response (%)
Answers are plain numbers, in %.

These solved cases illustrate the format of a correct answer.
O=C(O)c1ccccc1-c1ccc(C(F)(F)F)cc1: -6.58
NCC(=O)CCC(=O)O: 0.855
C[C@@H]1CC[C@@]2(OC1)O[C@H]1C[C@H]3[C@@H]4CC[C@H]5C[C@@H](O)CC[C@]5(C)[C@H]4CC(=O)[C@]3(C)[C@H]1[C@@H]2C: -9.03
CCOc1ccc2ccccc2c1C(=O)N[C@@H]1C(=O)N2[C@@H]1SC(C)(C)[C@@H]2C(=O)O: -1.05
CC1(C)S[C@@H]2[C@H](NC(=O)Cc3ccccc3)C(=O)N2[C@H]1C(=O)O (tested in a mixture with another compound): -2.5
CC(CN(C)C)CN1c2ccccc2CCc2ccccc21 (stereo not drawn): 4.34
CC(C)(C)C(=O)NCCCC(=O)O: 2.51
COc1ccccc1O: -0.65
CN(C)CCCO[C@@H]1[C@H]2OC(C)(C)O[C@H]2O[C@@H]1C(O)CO (stereo partly drawn): -6.36
N[C@@H](CSCCCO)C(=O)O: -2.32

Need max response for each of these compounds.
1. Oc1cccc(O)c1
2. CCOc1nc2cccc(C(=O)O)c2n1Cc1ccc(-c2ccccc2-c2nn[nH]n2)cc1
3. CC12CCC(CC1)C(C)(C)O2

Result string:
1: -1.48; 2: 5.7; 3: 7.91
